Reported max activation by item:
# Tested system: 3-phosphoinositide-dependent protein kinase 1 (Homo sapiens)
# Sequence (whole entry): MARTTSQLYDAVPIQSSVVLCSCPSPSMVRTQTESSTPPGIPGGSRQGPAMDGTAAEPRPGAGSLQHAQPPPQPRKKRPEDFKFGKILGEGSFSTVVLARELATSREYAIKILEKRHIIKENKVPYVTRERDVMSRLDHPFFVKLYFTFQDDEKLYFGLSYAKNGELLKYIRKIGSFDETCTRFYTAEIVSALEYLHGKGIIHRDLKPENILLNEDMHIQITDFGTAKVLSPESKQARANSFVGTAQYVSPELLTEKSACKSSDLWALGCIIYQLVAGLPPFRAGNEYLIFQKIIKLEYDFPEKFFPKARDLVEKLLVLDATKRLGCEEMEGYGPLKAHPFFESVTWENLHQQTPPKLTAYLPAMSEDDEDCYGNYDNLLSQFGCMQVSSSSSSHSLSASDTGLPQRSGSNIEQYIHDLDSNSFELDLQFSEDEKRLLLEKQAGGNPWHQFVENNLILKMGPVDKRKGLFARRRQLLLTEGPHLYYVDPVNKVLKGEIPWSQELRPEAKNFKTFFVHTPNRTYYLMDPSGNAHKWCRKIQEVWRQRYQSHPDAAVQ
# Assay remarks: Activation of PDK1 using KTFCGTPEYLAPEVRR as substrate and [gamma32P]-ATP/Mg2+ by phosphor imaging analysis relative to control
Observable: max activation

{"Compound": "O=C(CC(c1ccccc1)C(C(=O)O)C(=O)O)c1ccc(C(F)(F)F)cc1 (racemic)", "Observable": "max activation", "Observed measurement": 5.5}
{"Compound": "CCc1ccc(C(=O)CC(CC(=O)O)c2ccccc2)cc1 (racemic)", "Observable": "max activation", "Observed measurement": 2}
{"Compound": "O=C(O)CC(CC(=O)c1ccc(I)cc1)c1ccccc1 (racemic)", "Observable": "max activation", "Observed measurement": 4}
{"Compound": "O=C(CC(c1ccc(Cl)cc1)C(C(=O)O)C(=O)O)c1ccc(C(F)(F)F)cc1 (racemic)", "Observable": "max activation", "Observed measurement": 3.5}
{"Compound": "O=C(CC(c1ccccc1)C(C(=O)O)C(=O)O)c1ccc2ccccc2c1 (racemic)", "Observable": "max activation", "Observed measurement": 4}
{"Compound": "O=C(O)CC(CC(=O)c1ccc2ccccc2c1)c1ccc2ccccc2c1 (racemic)", "Observable": "max activation", "Observed measurement": 3.4}
{"Compound": "O=C(CC(c1ccccc1)C(C(=O)O)C(=O)O)c1ccc(Oc2ccccc2)cc1 (racemic)", "Observable": "max activation", "Observed measurement": 7}
{"Compound": "O=C(CC(c1ccc(Cl)cc1)C(C(=O)O)C(=O)O)c1ccc(Cl)cc1 (racemic)", "Observable": "max activation", "Observed measurement": 2}
{"Compound": "O=C(CC(c1ccccc1)C(C(=O)O)C(=O)O)c1ccc(I)cc1 (racemic)", "Observable": "max activation", "Observed measurement": 4}
{"Compound": "CCc1ccc(C(=O)CC(c2ccccc2)C(C(=O)O)C(=O)O)cc1 (racemic)", "Observable": "max activation", "Observed measurement": 5}
